# assay.system: T1, human DSG2 on cells (HeLa cells; polarized T84 cells) (human, UniProt Q14126 50-1118)
# T1 construct: whole, on cells; also called HeLa cells, which express DSG2
# T1 sequence: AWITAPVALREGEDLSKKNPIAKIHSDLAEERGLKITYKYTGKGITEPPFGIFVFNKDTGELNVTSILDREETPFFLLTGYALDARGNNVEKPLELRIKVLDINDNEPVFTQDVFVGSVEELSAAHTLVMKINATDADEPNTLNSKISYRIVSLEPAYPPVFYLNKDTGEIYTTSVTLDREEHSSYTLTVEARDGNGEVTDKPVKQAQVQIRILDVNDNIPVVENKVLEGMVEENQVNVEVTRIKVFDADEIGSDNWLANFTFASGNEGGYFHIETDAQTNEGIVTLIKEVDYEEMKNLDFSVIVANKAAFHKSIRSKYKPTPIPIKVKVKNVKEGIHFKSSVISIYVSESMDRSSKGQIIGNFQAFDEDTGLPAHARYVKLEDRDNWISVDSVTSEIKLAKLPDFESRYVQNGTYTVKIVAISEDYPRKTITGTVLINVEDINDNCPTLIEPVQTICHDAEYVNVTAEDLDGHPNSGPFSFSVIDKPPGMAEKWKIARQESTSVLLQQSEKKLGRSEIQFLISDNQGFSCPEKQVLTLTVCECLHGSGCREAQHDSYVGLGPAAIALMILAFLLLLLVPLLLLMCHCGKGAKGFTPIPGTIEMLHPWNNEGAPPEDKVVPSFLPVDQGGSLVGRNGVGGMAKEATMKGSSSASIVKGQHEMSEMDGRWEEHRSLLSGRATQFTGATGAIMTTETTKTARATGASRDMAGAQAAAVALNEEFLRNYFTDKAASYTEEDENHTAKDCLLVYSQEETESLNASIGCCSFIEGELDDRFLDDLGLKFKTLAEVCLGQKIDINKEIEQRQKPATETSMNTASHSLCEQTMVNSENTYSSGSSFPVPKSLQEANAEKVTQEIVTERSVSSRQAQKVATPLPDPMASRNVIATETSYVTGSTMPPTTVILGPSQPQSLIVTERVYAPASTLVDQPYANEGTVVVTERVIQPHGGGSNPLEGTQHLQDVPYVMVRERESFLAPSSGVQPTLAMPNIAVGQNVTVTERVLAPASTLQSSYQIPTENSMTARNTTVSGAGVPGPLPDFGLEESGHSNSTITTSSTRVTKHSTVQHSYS
# assay.summary: attachment of 3H-labelled Ad3 virus (competitor) to HeLa cells pre-incubated with the dimeric knob
Note to self: values exactly at 60% are MET. So Inhibition of attachment in the presence of dimeric knob (JO-1 = 100%) at or above 60% is MET, below is NOT MET.

>>> qualitative_label("dimeric Ad3 fiber knob mutant N186D (designed binder) MKVSALKEKVSALKEKVSALKEKVSALKEKVSALKEGSGGGSGGGSGGGSNSIALKNNTLWTGPKPEANCIIEYGKQNPDSKLTLILVKNGGIVNGYVTLMGASDYVNTLFKDKNVSINVELYFDATGHILPDSSSLKTDLELKYKQTADFSARGFMPSTTAYPFVLPNAGTHNENYIFGQCYYKASDGALFPLEVTVMLNKRLPDSRTSYVMTFLWSLNAGLAPETTQATLITSPFTFSYIREDD")
"NOT MET"
>>> qualitative_label("dimeric Ad3 fiber knob mutant F265L (designed binder) MKVSALKEKVSALKEKVSALKEKVSALKEKVSALKEGSGGGSGGGSGGGSNSIALKNNTLWTGPKPEANCIIEYGKQNPDSKLTLILVKNGGIVNGYVTLMGASDYVNTLFKNKNVSINVELYFDATGHILPDSSSLKTDLELKYKQTADFSARGFMPSTTAYPFVLPNAGTHNENYIFGQCYYKASDGALLPLEVTVMLNKRLPDSRTSYVMTFLWSLNAGLAPETTQATLITSPFTFSYIREDD")
"NOT MET"
>>> qualitative_label("dimeric Ad3 fiber knob mutant E299V (designed binder) MKVSALKEKVSALKEKVSALKEKVSALKEKVSALKEGSGGGSGGGSGGGSNSIALKNNTLWTGPKPEANCIIEYGKQNPDSKLTLILVKNGGIVNGYVTLMGASDYVNTLFKNKNVSINVELYFDATGHILPDSSSLKTDLELKYKQTADFSARGFMPSTTAYPFVLPNAGTHNENYIFGQCYYKASDGALFPLEVTVMLNKRLPDSRTSYVMTFLWSLNAGLAPVTTQATLITSPFTFSYIREDD")
"MET"

Can dimeric Ad3 fiber knob mutant S190P (designed binder, also called 5190P [sic]) MKVSALKEKVSALKEKVSALKEKVSALKEKVSALKEGSGGGSGGGSGGGSNSIALKNNTLWTGPKPEANCIIEYGKQNPDSKLTLILVKNGGIVNGYVTLMGASDYVNTLFKNKNVPINVELYFDATGHILPDSSSLKTDLELKYKQTADFSARGFMPSTTAYPFVLPNAGTHNENYIFGQCYYKASDGALFPLEVTVMLNKRLPDSRTSYVMTFLWSLNAGLAPETTQATLITSPFTFSYIREDD be said to have Inhibition of attachment in the presence of dimeric knob (JO-1 = 100%) at or above 60%?
MET

Can dimeric Ad3 fiber knob mutant D261N (designed binder) MKVSALKEKVSALKEKVSALKEKVSALKEKVSALKEGSGGGSGGGSGGGSNSIALKNNTLWTGPKPEANCIIEYGKQNPDSKLTLILVKNGGIVNGYVTLMGASDYVNTLFKNKNVSINVELYFDATGHILPDSSSLKTDLELKYKQTADFSARGFMPSTTAYPFVLPNAGTHNENYIFGQCYYKASNGALFPLEVTVMLNKRLPDSRTSYVMTFLWSLNAGLAPETTQATLITSPFTFSYIREDD be said to have Inhibition of attachment in the presence of dimeric knob (JO-1 = 100%) at or above 60%?
NOT MET
